Origin of the recorded values: patent US20260069689A1

molecular target: SARS-COV-2 RBD extracellular domain expressed with a C-terminal mouse IgG2a Fc (SARS-CoV-2); experiment: Biacore SPR, mAb captured on anti-hFc, 25 C
pKd: −log10 of the molar value.
The binders listed here are annotated with their pKd.
Measurement type: pKd

[
  {
    "Binder": "mAb15163 (antibody, V domains shown) VH: EVQLVETGGGLIQPGESLRLSCAASGFIVSTNYMNWVRQAPGKGLEWVSVIYRGGSTYYADSVKGRFTISRDNSKNTLFLQMNSLRAEDTAVYYCARGHEDFDYDTPASGAFDIWGQGTMVTVSS VL: QSALTQPPSASGSPGQSVTISCTGTSSDVGGHNYVSWYQQHPGKAPKVMIYEVSKRPSGVPDRFSGSKSGNTASLTVSGLQAEDEADYYCSSYAGSNKFVFGTGTKVTVLG",
    "Qualifier operator": "≥",
    "Value reported": 10.97
  },
  {
    "Binder": "mAb15160 (antibody, V domains shown) VH: EVQLVESGGGLVQPGGSLRLSCSASGFTFSRYAMYWVRQAPGKGLEYVSAISSDGGSTYDADSVKGRFTISRANSKNTLYLQMSSLRAEDTAVYYCVKGLRELLYYYYGMDVWGQGTTVTVSS VL: DIQMTQSPSSLSASVGDRVTITCRAGQSISSFLNWYQQKPGKAPKLLIYAASSLQSGVPSRFSGSGSGTDFTLTISSLQPEDFATYYCQQSYITPFTFGPGTKVDIKR",
    "Qualifier operator": "=",
    "Value reported": 10.39
  },
  {
    "Binder": "mAb14315 (antibody, V domains shown) VH: QVQLVQSGAEVKKPGSSVKVSCKASGDTFSTYAINWVRQAPGQGLEWMGRFIHIFGTANYAQKFQGRVTITADESTSTAYMELRSLRSEDTAVYYCARDGVDYGDYRPDYWGQGTLVTVSS VL: EIVLTQSPGTLSLSPGERATLSCRASQSVSSNYLAWYQQKPGQAPRLLIYGASSRATGIPERFSGSGSGTDFTLTISRLEPEDFAVYYCQQYGSSLYTFGQGTKLEIKR",
    "Qualifier operator": "=",
    "Value reported": 10.11
  }
]
